test: yeast display, Sf9 membrane polyspecificity reagent, FACS + sequencing; frameworks hold sequencing errors
measured metric: polyreactivity (PSR sort gate)

Example sequences with recorded polyreactivity (PSR sort gate):
| sequence input | result |
| --- | --- |
| QVQLVESGGGLVQAGGSLRLSCAASGSTFYLNAMGWYRQAPGKERELVAAITVSGGSTYYADSVKGRFTISRDNAKNTVYLQMNSLKPEDTAVYYCARELLSPTYPRWYYYWGQGTQVTVSS | low polyreactivity |
| QVQLEESVGGLVQAGGSLRLSCAASGFIFPYYTMGWYRQAPGKERELVAAISRTAVGTYYADSVKGRFTISRDNAKNTVYLQMNSLKPEDTAVYYCAVVTQRKYDYWGQGTQVTVSS | high polyreactivity |
| QVQLVESGGGLVQAGGSLRLSCAASGRIFDLYTMGWYRQAPGKERELVAAIRWSDGSTYYADSVKGRFTISRDNAKNTVYLQMNSLKPEDTAVYYCAADSRTSYYNDDYDYWGQGTQVTVSS | low polyreactivity |
| QFQLVESGGGLVQAGGSIRLSCAASGSTFTIYAMGWYRQAPGKERELVAAISGTGGTKYADSVKGRFTISRDNAKNTVYLQMTSLKPEDTAVYYCAARYMLWDGDSWTEFDYWGQGTQVTVSS | low polyreactivity |
| QVQLVESGGGLVQAGGSLRLSCAASGSTFYSNVMGWYRQAPGKERELVAAISRSGGSTYYADSVKGRFTISRDNAKNTVYLQMNSLKPEDTAVYYCAAEREVGDAYDYWGQGTQVTVSS | high polyreactivity |
| QVQLVESGGGLVQAGGSLRLSCAASGSTFGLYAMGRYRQAPGKERELVAAIRYSDGSTYYADSVKGRFTISRDNAKNTVYLQMNSLKPEDTAVYYCAAEIGTYFHVPTEYDYWGQGTQVTVSS | low polyreactivity |

Lab note: next sequence to report on.
The sequence listed as "QVQLVQSGGGLVQAGGILRLSCAASGRTFSTNAMGRYIQAPGKERQLVAAITYGSSSTYYADSVKGRFTISRDNAKNTVYFKMNCLKPEDTAVYDCAAGGFFTHRRTYGYWGQGTQVTVSS" has a reported polyreactivity (PSR sort gate) of high polyreactivity
